The reported numbers originate from PubChem BioAssay (NCI).

System: LOX IMVI melanoma
Assay: NCI-60 one-dose screen, 48 h
Settings: 10 µM unless noted
About 83,000 compounds went through this panel and 20% of them were active in at least one assay; those are over-represented in the sample as a whole. Activity calls are given as the source filed them. The calls were made as follows: active = growth percent below 10; inactive = the rest.
Answer with one of the outcomes given here: active, inactive

# compound, category label
measured = [
    ("C=CCn1c(SCC(=O)Nc2ccc(C(=O)/C=C/c3cc(OC)c(OC)c(OC)c3)cc2)nnc1-c1ccccc1", "inactive"),
    ("CCCCN(CCCC)CC(CN(CC)CC)OC(=O)Nc1ccccc1 (centres undefined)", "inactive"),
]

Enquiry: What classification did CC(=O)Nc1c(C(=O)Nc2ccccc2)sc2nc3c(cc12)C(OC(C)=O)CCC3 (centres undefined) end up with in this test?
Return: inactive

Enquiry: Now the compound COc1ccccc1N1CCN(CCCOc2ccc(C(=O)/C=C3/C(=O)Nc4ccccc43)cc2)CC1
Return: inactive

Enquiry: Now the compound CN1CCN(S(=O)(=O)O[C@@H]2C(=O)N(c3cc4c5ccccc5ccc4c4ccccc34)[C@H]2c2ccc(F)cn2)CC1
Return: inactive
